Data origin, for the record: patent US11730937B2

# assay: in vivo
# condition.context: female, Sprague Dawley, rat, iv, 0.006 mg
readout: AUC(0-t) (ng·h/mL)
Give just the number in ng·h/mL; leave the unit off.

## Input Using the record for `C#C[C@]1(O)CC[C@H]2[C@@H]3CCC4=CC(=O)CC[C@@H]4[C@H]3CC[C@@]21CC` , report its AUC(0-t).
## Output 17.2

* * *

# assay: in vivo
# condition.context: female, Sprague Dawley, rat, iv, 0.006 mg
readout: AUC(0-inf) (ng·h/mL)
Give just the numeric value; ng·h/mL need not be written.

## Input Endpoint output: AUC(0-inf) of `C#C[C@]1(O)CC[C@H]2[C@@H]3CCC4=CC(=O)CC[C@@H]4[C@H]3CC[C@@]21CC` . Value?
## Output 17.2
